Each record here notes measured abundance fitness.
B1: Gamma-crystallin D, residues 90 to 170; numbered along this chain, P07320 (parent)
chain: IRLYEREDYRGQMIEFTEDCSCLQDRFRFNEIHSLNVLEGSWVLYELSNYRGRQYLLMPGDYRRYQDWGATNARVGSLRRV

Variants of: B1
Experiment: abundance fitness (aPCA) (normalised: wild type 0, dead -1); higher = more abundant; growth selection in yeast, the domain comes from the species named
Details: Homo sapiens
Response field accepts a number only; no unit should be typed.

Worked examples follow.
S34W    -0.828
E31N    0.005
E7L    -0.031

Given P59G , state its recorded abundance fitness. 0.065

Fill in the blank: the reported abundance fitness of R51A is ____. -0.024

I have this variant here, M58G , and I need its recorded abundance fitness. 0.093

Item under review: E15M . Reported abundance fitness? -0.013

For M13N , what is its reported abundance fitness? -0.042

Please give the measured abundance fitness for this variant: C22K -0.134

Find the recorded abundance fitness belonging to E15P and report it. 0.038

What abundance fitness value was documented for this variant, E5T ? -0.146

Report abundance fitness for R26M please. -0.007

Item V43E has what recorded abundance fitness? 0.204

Tell me the measured abundance fitness of R6M , please. -0.042

Record request: abundance fitness value, item L47R 0.055

Which measured abundance fitness value corresponds to G52V ? -0.919
